Target: human NK2-receptor (Homo sapiens)
Sequence (P21452 whole entry): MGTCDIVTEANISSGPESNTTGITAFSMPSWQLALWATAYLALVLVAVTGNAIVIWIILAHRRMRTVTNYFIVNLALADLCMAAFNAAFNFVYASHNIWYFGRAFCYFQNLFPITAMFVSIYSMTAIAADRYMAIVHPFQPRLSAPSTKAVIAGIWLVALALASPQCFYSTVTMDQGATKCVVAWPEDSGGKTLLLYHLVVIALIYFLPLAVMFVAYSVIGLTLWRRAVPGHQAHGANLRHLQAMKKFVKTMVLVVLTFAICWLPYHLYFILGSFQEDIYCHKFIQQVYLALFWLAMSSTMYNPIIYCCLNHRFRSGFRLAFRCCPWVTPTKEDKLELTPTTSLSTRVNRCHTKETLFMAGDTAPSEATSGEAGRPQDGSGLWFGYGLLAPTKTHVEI
Assay: Functional cellular test, Ca2+ measurements using FLIPR for NK2 activity;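 note: CHO cells stably expressing the human receptor, loaded with a calcium dye, antagonist inhibition of ligand-evoked intracellular calcium rise read as peak fluorescence change on FLIPR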
Quick rule for you: Kb under 3 nM gets class 1, anything else gets class 0.

In [3]: df
Out[3]:
                                    molecule    label
 0  CN(C)C(=O)C1(N2CCCCC2)CCN(CCC(CN(C)C(=O)c2ccccn2)c2ccc(Cl)c(Cl)c2)CC1 (stereo not drawn)  class 1
 1  CN(C)C(=O)C1(N2CCCCC2)CCN(CCC(CN(C)C(=O)Cc2ccncc2)c2ccc(Cl)c(Cl)c2)CC1 (stereo not drawn)  class 0
 2  CC(=O)N1CCC(C(=O)N(C)CC(CCN2CCC(C(=O)N(C)C)(N3CCCCC3)CC2)c2ccc(Cl)c(Cl)c2)CC1 (stereo not drawn)  class 0
 3  CN(C)C(=O)C1(N2CCCCC2)CCN(CCC(CN(C)C(=O)c2ccc(OC(F)(F)F)cc2)c2ccc(Cl)c(Cl)c2)CC1 (stereo not drawn)  class 1
 4  CCC(=O)N(C1CCCCC1)C1CCN(CC[C@H](CN(C)C(=O)c2ccccc2)c2ccc(Cl)c(Cl)c2)CC1  class 1
 5  CN(C)C(=O)C1(N2CCCC2)CCN(CC[C@H](CN(C)C(=O)c2ccccc2)c2ccc(Cl)c(Cl)c2)CC1  class 1
 6  CN(C)C(=O)C1(N2CCCCC2)CCN(CCC(CN(C)C(=O)c2cccc(C(F)(F)F)c2)c2ccc(Cl)c(Cl)c2)CC1 (stereo not drawn)  class 0
 7  Cc1c(C(=O)N(C)CC(CCN2CCC(C(=O)N(C)C)(N3CCCCC3)CC2)c2ccc(Cl)c(Cl)c2)nnn1Cc1ccccc1 (stereo not drawn)  class 0
 8  CN(C)C(=O)C1(N2CCCCC2)CCN(CC[C@H](CN(C)C(=O)c2ccccc2)c2ccccc2)CC1  class 1
 9  CN(C)C(=O)C1(N2CCCCC2)CCN(CCC(CN(C)C(=O)c2cc[n+]([O-])cc2)c2ccc(Cl)c(Cl)c2)CC1 (stereo not drawn)  class 0
10  CN(C)C(=O)C1(N2CCCCC2)CCN(CCC(CN(C)C(=O)c2cc(Cl)ccc2F)c2ccc(Cl)c(Cl)c2)CC1 (stereo not drawn)  class 0
11  CN(C)C(=O)C1(N2CCCCC2)CCN(CC[C@H](CN(C)C(=O)c2ccc(O)cc2)c2ccc(Cl)c(Cl)c2)CC1  class 1
12  CN(C)C(=O)C1(N2CCCCC2)CCN(CCC(CN(C)C(=O)c2ccoc2)c2ccc(Cl)c(Cl)c2)CC1 (stereo not drawn)  class 1
13  CN(C)C(=O)C1(N2CCCCC2)CCN(CCC(CN(C)C(=O)c2cccnc2)c2ccc(Cl)c(Cl)c2)CC1 (stereo not drawn)  class 1
14  CN(C)C(=O)C1(N2CCCCC2)CCN(CCC(CN(C)C(=O)c2ccc(Cl)nc2)c2ccc(Cl)c(Cl)c2)CC1 (stereo not drawn)  class 0
15  CN(C[C@@H](CCN1CCC(C(=O)N2CCCC2)(N2CCCC2)CC1)c1ccc(Cl)c(Cl)c1)C(=O)c1cc(C#N)cc2ccccc12  class 0
16  CN(C)C(=O)C1(N2CCCCC2)CCN(CCC(CN(C)C(=O)c2cccs2)c2ccc(Cl)c(Cl)c2)CC1 (stereo not drawn)  class 1
17  CNC(=O)C1(N2CCCCC2)CCN(CC[C@H](CN(C)C(=O)c2ccccc2)c2ccc(Cl)c(Cl)c2)CC1  class 1
18  CN(C)C(=O)C1(N2CCCCC2)CCN(CC[C@H](CN(C)C(=O)c2ccccc2)c2ccc(Cl)c(Cl)c2)CC1  class 1
19  CCCCN(C(=O)CC)C1CCN(CC[C@H](CN(C)C(=O)c2ccccc2)c2ccc(Cl)c(Cl)c2)CC1  class 1
20  CCC(=O)N(CC1CC1)C1CCN(CC[C@H](CN(C)C(=O)c2ccccc2)c2ccc(Cl)c(Cl)c2)CC1  class 1
21  CN(C[C@@H](CCN1CCC(C(=O)N2CCCC2)(N2CCCC2)CC1)c1ccc(Cl)c(Cl)c1)C(=O)c1ccccc1  class 1
22  CN(C)C(=O)C1(N2CCN(CC[C@H](CN(C)C(=O)c3ccccc3)c3ccc(Cl)c(Cl)c3)CC2)CCCCC1  class 1
23  CN(C[C@@H](CCN1CCC(C(=O)N2CCCCC2)(N2CCCCC2)CC1)c1ccc(Cl)c(Cl)c1)C(=O)c1ccccc1  class 0
24  CN(C)C(=O)C1(N2CCCCC2)CCN(CCC(CN(C)C(=O)c2ccc3occc3c2)c2ccc(Cl)c(Cl)c2)CC1 (stereo not drawn)  class 0
25  CNC(=O)C1(N2CCCCC2)CCN(CCC(CN(C)C(=O)c2cc(C#N)cc3ccccc23)c2ccc(Cl)c(Cl)c2)CC1 (stereo not drawn)  class 0
26  CN(C)C(=O)C1CCCCN1C1CCN(CCC(CN(C)C(=O)c2ccccc2)c2ccc(Cl)c(Cl)c2)CC1 (stereo not drawn)  class 1
